Test system: Parabacteroides distasonis
Experiment: growth AUC relative to DMSO control (median of replicates) (fraction); higher = more growth (less inhibition), active = hit call of the paper
Conditions: 20 µM; 24 h
Classification field. Basis: growth AUC. Definitions: class 1 = under 0.9, class 2 = from 0.9 up to 1, class 3 = 1 and over

Examples with answers:
{"molecule": "CCCCCCCCc1c(CC)nc2ncnn2c1N", "assigned category": "class 2"}
{"molecule": "CC[N+](CC)(CC(=O)Nc1c(C)cccc1C)Cc1ccccc1.O=C([O-])c1ccccc1", "assigned category": "class 3"}
{"molecule": "CCOC(=O)Cn1c(=O)sc2cccc(Cl)c21", "assigned category": "class 3"}
{"molecule": "CC(C)OC(=O)N[C@H](C(=O)N[C@H](C)c1nc2ccc(F)cc2s1)C(C)C", "assigned category": "class 1"}
{"molecule": "CCOc1ccc(C2(C(=O)OC(C#N)c3cccc(Oc4ccccc4)c3)CC2(Cl)Cl)cc1 (stereo not given)", "assigned category": "class 2"}

Incoming: Dear colleague, I would appreciate it if you could identify the bin for `CON=C(Cc1cccnc1)c1ccc(Cl)cc1Cl` and reply at your convenience.
Outgoing: class 3

Incoming: Entry CCCCOC(=O)C(C)Oc1ccc(Oc2ccc(C(F)(F)F)cn2)cc1 (stereo not given) belongs to which category?
Outgoing: class 1

Incoming: Lab log: `COc1ccccc1C(=O)NS(=O)(=O)c1ccc(C(=O)NC2CC2)cc1` — assign growth AUC category
Outgoing: class 3

Incoming: Which class holds `CSc1nnc(C(C)(C)C)c(=O)n1/N=C/C(C)C` ?
Outgoing: class 3

Incoming: For `Br[C@@H]1CC[C@@H](Br)[C@@H](Br)CC[C@@H](Br)[C@@H](Br)CC[C@H]1Br` , which growth AUC bin applies?
Outgoing: class 1
